Reported values of inhibition at 0.001 µM for individual entries
Biological target: recombinant human MIF (Homo sapiens, UniProt P14174)
Construct: purchased RayBiotech
Sequence (P14174 2-115 limits assumed): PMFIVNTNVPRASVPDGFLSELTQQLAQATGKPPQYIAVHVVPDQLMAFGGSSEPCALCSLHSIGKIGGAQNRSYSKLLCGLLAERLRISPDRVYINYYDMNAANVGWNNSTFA
Test: MIF tautomerase assay using 4-hydroxyphenylpyruvate (4-HPP)
Assay type: biochemical
Settings: compounds at 1 nM; substrate 4-HPP; compared to positive control with rhMIF alone
Param answer (str): number followed by unit.

Reference set (5 entries):
In [3]: df
Out[3]:
                                   compound  observed_value
0  Cc1ccc2oc(=O)n(Cc3cccc(O)c3)c2c1 [Compound M41, reference compound]             29%
1          Cc1ccc2oc(=S)n(Cc3cccc(O)c3)c2c1             41%
2           COc1ccccc1Cn1c(=S)oc2ccc(C)cc21             36%
3       Cc1ccc2oc(=S)n(Cc3ccc(F)c(O)c3)c2c1             39%
4  COC(=O)CC1CC(c2ccc(O)cc2)=NO1 (stereo not shown) [ISO-1, reference compound]             21%

State the recorded inhibition at 0.001 µM for this entry: `Cc1ccc2oc(=S)n(Cc3ccccc3)c2c1`
35%

One more compound: `Oc1cc(Cn2c(=S)oc3ccc(C(F)(F)F)cc32)ccc1F`
43%
